System: HeLa Kyoto
EXPERIMENT NOTES: melting temperature (median over replicates), in situ; higher = more thermally stable
STATED CONDITIONS: cell cycle stage: mitosis
QUANTITY MEASURED: melting temperature

>>> observed_measurement("MAAAEPAVLALPNSGAGGAGAPSGTVPVLFCFSVFARPSSVPHGAGYELLIQKFLSLYGDQIDMHRKFVVQLFAEEWGQYVDLPKGFAVSERCKVRLVPLQIQLTTLGNLTPSSTVFFCCDMQERFRPAIKYFGDIISVGQRLLQGARILGIPVIVTEQYPKGLGSTVQEIDLTGVKLVLPKTKFSMVLPEVEAALAEIPGVRSVVLFGVETHVCIQQTALELVGRGVEVHIVADATSSRSMMDRMFALERLARTGIIVTTSEAVLLQLVADKDHPKFKEIQNLIKASAPESGLLSKV [ISOC1]")
"55.4 °C"
>>> observed_measurement("MGCTVSAEDKAAAERSKMIDKNLREDGEKAAREVKLLLLGAGESGKSTIVKQMKIIHEDGYSEEECRQYRAVVYSNTIQSIMAIVKAMGNLQIDFADPSRADDARQLFALSCTAEEQGVLPDDLSGVIRRLWADHGVQACFGRSREYQLNDSAAYYLNDLERIAQSDYIPTQQDVLRTRVKTTGIVETHFTFKDLHFKMFDVGGQRSERKKWIHCFEGVTAIIFCVALSAYDLVLAEDEEMNRMHESMKLFDSICNNKWFTDTSIILFLNKKDLFEEKITHSPLTICFPEYTGANKYDEAASYIQSKFEDLNKRKDTKEIYTHFTCATDTKNVQFVFDAVTDVIIKNNLKDCGLF [GNAI2]")
"54.2 °C"

---

System: HeLa Kyoto
EXPERIMENT NOTES: thermal stability score vs G1/S (z-score of summed log2 fold changes over temperatures); higher = more thermally stable than in G1/S
STATED CONDITIONS: cell cycle stage: early G1 (4.5 h after nocodazole release)
QUANTITY MEASURED: thermal stability score

>>> observed_measurement("MPSSPLRVAVVCSSNQNRSMEAHNILSKRGFSVRSFGTGTHVKLPGPAPDKPNVYDFKTTYDQMYNDLLRKDKELYTQNGILHMLDRNKRIKPRPERFQNCKDLFDLILTCEERVYDQVVEDLNSREQETCQPVHVVNVDIQDNHEEATLGAFLICELCQCIQHTEDMENEIDELLQEFEEKSGRTFLHTVCFY [SSU72]")
0.263
>>> observed_measurement("MGIQTSPVLLASLGVGLVTLLGLAVGSYLVRRSRRPQVTLLDPNEKYLLRLLDKTTVSHNTKRFRFALPTAHHTLGLPVGKHIYLSTRIDGSLVIRPYTPVTSDEDQGYVDLVIKVYLKGVHPKFPEGGKMSQYLDSLKVGDVVEFRGPSGLLTYTGKGHFNIQPNKKSPPEPRVAKKLGMIAGGTGITPMLQLIRAILKVPEDPTQCFLLFANQTEKDIILREDLEELQARYPNRFKLWFTLDHPPKDWAYSKGFVTADMIREHLPAPGDDVLVLLCGPPPMVQLACHPNLDKLGYSQKMRFTY [CYB5R1]")
-0.825
>>> observed_measurement("MAGKKVLIVYAHQEPKSFNGSLKNVAVDELSRQGCTVTVSDLYAMNLEPRATDKDITGTLSNPEVFNYGVETHEAYKQRSLASDITDEQKKVREADLVIFQFPLYWFSVPAILKGWMDRVLCQGFAFDIPGFYDSGLLQGKLALLSVTTGGTAEMYTKTGVNGDSRYFLWPLQHGTLHFCGFKVLAPQISFAPEIASEEERKGMVAAWSQRLQTIWKEEPIPCTAHWHFGQ [NQO2]")
-1.69

---

Below, each entry is listed alongside its reported thermal stability score.
System: HeLa Kyoto
EXPERIMENT NOTES: thermal stability score vs G1/S (z-score of summed log2 fold changes over temperatures); higher = more thermally stable than in G1/S
STATED CONDITIONS: cell cycle stage: mitosis
QUANTITY MEASURED: thermal stability score

>>> observed_measurement("MPGRSSSNSGSTGFISFSGVESALSSLKNFQACINSGMDTASSVALDLVESQTEVSSEYSMDKAMVEFATLDRQLNHYVKAVQSTINHVKEERPEKIPDLKLLVEKKFLALQSKNSDADFQNNEKFVQFKQQLKELKKQCGLQADREADGTEGVDEDIIVTQSQTNFTCPITKEEMKKPVKNKVCGHTYEEDAIVRMIESRQKRKKKAYCPQIGCSHTDIRKSDLIQDEALRRAIENHNKKRHRHSE [NSMCE2]")
-0.266
>>> observed_measurement("MASEELQKDLEEVKVLLEKATRKRVRDALTAEKSKIETEIKNKMQQKSQKKAELLDNEKPAAVVAPITTGYTVKISNYGWDQSDKFVKIYITLTGVHQVPTENVQVHFTERSFDLLVKNLNGKSYSMIVNNLLKPISVEGSSKKVKTDTVLILCRKKVENTRWDYLTQVEKECKEKEKPSYDTETDPSEGLMNVLKKIYEDGDDDMKRTINKAWVESREKQAKGDTEF [CACYBP]")
-1.11
>>> observed_measurement("MDLSELERDNTGRCRLSSPVPAVCRKEPCVLGVDEAGRGPVLGPMVYAICYCPLPRLADLEALKVADSKTLLESERERLFAKMEDTDFVGWALDVLSPNLISTSMLGRVKYNLNSLSHDTATGLIQYALDQGVNVTQVFVDTVGMPETYQARLQQSFPGIEVTVKAKADALYPVVSAASICAKVARDQAVKKWQFVEKLQDLDTDYGSGYPNDPKTKAWLKEHVEPVFGFPQFVRFSWRTAQTILEKEAEDVIWEDSASENQEGLRKITSYFLNEGSQARPRSSHRYFLERGLESATSL [RNASEH2A]")
0.422

---

Tested on: HeLa Kyoto
EXPERIMENT NOTES: solubility in G1/S (NP-40 vs SDS abundance) (log2 ratio); higher = more soluble
STATED CONDITIONS: cell cycle stage: G1/S
# solubility in G1/S (log2) listing for each entry below
QUANTITY MEASURED: solubility in G1/S (log2)

>>> observed_measurement("MAAPKGSLWVRTQLGLPPLLLLTMALAGGSGTASAEAFDSVLGDTASCHRACQLTYPLHTYPKEEELYACQRGCRLFSICQFVDDGIDLNRTKLECESACTEAYSQSDEQYACHLGCQNQLPFAELRQEQLMSLMPKMHLLFPLTLVRSFWSDMMDSAQSFITSSWTFYLQADDGKIVIFQSKPEIQYAPHLEQEPTNLRESSLSKMSYLQMRNSQAHRNFLEDGESDGFLRCLSLNSGWILTTTLVLSVMVLLWICCATVATAVEQYVPSEKLSIYGDLEFMNEQKLNRYPASSLVVVRSKTEDHEEAGPLPTKVNLAHSEI [TMEM59]")
0.0662
>>> observed_measurement("MEGGGGSGNKTTGGLAGFFGAGGAGYSHADLAGVPLTGMNPLSPYLNVDPRYLVQDTDEFILPTGANKTRGRFELAFFTIGGCCMTGAAFGAMNGLRLGLKETQNMAWSKPRNVQILNMVTRQGALWANTLGSLALLYSAFGVIIEKTRGAEDDLNTVAAGTMTGMLYKCTGGLRGIARGGLTGLTLTSLYALYNNWEHMKGSLLQQSL [TIMM23]")
0.455
>>> observed_measurement("MGKMAAAVGSVATLATEPGEDAFRKLFRFYRQSRPGTADLEGVIDFSAAHAARGKGPGAQKVIKSQLNVSSVSEQNAYRAGLQPVSKWQAYGLKGYPGFIFIPNPFLPGYQWHWVKQCLKLYSQKPNVCNLDKHMSKEETQDLWEQSKEFLRYKEATKRRPRSLLEKLRWVTVGYHYNWDSKKYSADHYTPFPSDLGFLSEQVAAACGFEDFRAEAGILNYYRLDSTLGIHVDRSELDHSKPLLSFSFGQSAIFLLGGLQRDEAPTAMFMHSGDIMIMSGFSRLLNHAVPRVLPNPEGEGLPHCLEAPLPAVLPRDSMVEPCSMEDWQVCASYLKTARVNMTVRQVLATDQNFPLEPIEDEKRDISTEGFCHLDDQNSEVKRARINPDS [ALKBH1]")
0.0175

---

This listing pairs sequences with measured melting temperature.
Test system: HeLa Kyoto
EXPERIMENT NOTES: melting temperature (median over replicates), in situ; higher = more thermally stable
STATED CONDITIONS: cell cycle stage: G1/S
QUANTITY MEASURED: melting temperature (°C)

>>> observed_measurement("MSELEQLRQEAEQLRNQIQDARKACNDATLVQITSNMDSVGRIQMRTRRTLRGHLAKIYAMHWGYDSRLLVSASQDGKLIIWDSYTTNKMHAIPLRSSWVMTCAYAPSGNYVACGGLDNICSIYNLKTREGNVRVSRELPGHTGYLSCCRFLDDSQIVTSSGDTTCALWDIETAQQTTTFTGHSGDVMSLSLSPDMRTFVSGACDASSKLWDIRDGMCRQSFTGHVSDINAVSFFPNGYAFATGSDDATCRLFDLRADQELLLYSHDNIICGITSVAFSKSGRLLLAGYDDFNCNVWDTLKGDRAGVLAGHDNRVSCLGVTDDGMAVATGSWDSFLRIWN [GNB4]")
55.6
>>> observed_measurement("MTTQQIDLQGPGPWGFRLVGGKDFEQPLAISRVTPGSKAALANLCIGDVITAIDGENTSNMTHLEAQNRIKGCTDNLTLTVARSEHKVWSPLVTEEGKRHPYKMNLASEPQEVLHIGSAHNRSAMPFTASPASSTTARVITNQYNNPAGLYSSENISNFNNALESKTAASGVEANSRPLDHAQPPSSLVIDKESEVYKMLQEKQELNEPPKQSTSFLVLQEILESEEKGDPNKPSGFRSVKAPVTKVAASIGNAQKLPMCDKCGTGIVGVFVKLRDRHRHPECYVCTDCGTNLKQKGHFFVEDQIYCEKHARERVTPPEGYEVVTVFPK [PDLIM1]")
55.6
>>> observed_measurement("MEPTAPSLTEEDLTEVKKDALENLRVYLCEKIIAERHFDHLRAKKILSREDTEEISCRTSSRKRAGKLLDYLQENPKGLDTLVESIRREKTQNFLIQKITDEVLKLRNIKLEHLKGLKCSSCEPFPDGATNNLSRSNSDESNFSEKLRASTVMYHPEGESSTTPFFSTNSSLNLPVLEVGRTENTIFSSTTLPRPGDPGAPPLPPDLQLEEEGTCANSSEMFLPLRSRTVSRQ [BCL10]")
49.8
>>> observed_measurement("MAGLGHPAAFGRATHAVVRALPESLGQHALRSAKGEEVDVARAERQHQLYVGVLGSKLGLQVVELPADESLPDCVFVEDVAVVCEETALITRPGAPSRRKEVDMMKEALEKLQLNIVEMKDENATLDGGDVLFTGREFFVGLSKRTNQRGAEILADTFKDYAVSTVPVADGLHLKSFCSMAGPNLIAIGSSESAQKALKIMQQMSDHRYDKLTVPDDIAANCIYLNIPNKGHVLLHRTPEEYPESAKVYEKLKDHMLIPVSMSELEKVDGLLTCCSVLINKKVDS [DDAH1]")
55.3
>>> observed_measurement("MAELDPFGAPAGAPGGPALGNGVAGAGEEDPAAAFLAQQESEIAGIENDEAFAILDGGAPGPQPHGEPPGGPDAVDGVMNGEYYQESNGPTDSYAAISQVDRLQSEPESIRKWREEQMERLEALDANSRKQEAEWKEKAIKELEEWYARQDEQLQKTKANNRVADEAFYKQPFADVIGYVTNINHPCYSLEQAAEEAFVNDIDESSPGTEWERVARLCDFNPKSSKQAKDVSRMRSVLISLKQAPLVH [CLTA]")
54.7

These entries and their values trace back to the supplement of paper PMC5998384.
